- study_target: KRAS
- stated_conditions: ASO, A431, 2 µM
After the bases stand the sugars from the 5' end (letter, count) and the backbone: PS all phosphorothioate, else s phosphorothioate and o phosphodiester by linkage. Methylation of C is not given here. e = 2'-O-(2-methoxyethyl) (MOE); k = constrained ethyl (cEt); d = 2'-deoxy (DNA)
Mark false (0) for target mRNA inhibition values under 40%, and true (1) for everything at or above.

Prompt: Given TTAGTGATTAGGTCAA (sugars kkddddddddkekekk, PS) , state whether its target mRNA inhibition is at least 40%.
Completion: false (0)

Prompt: Given GAGTCTTTATAGTAAT (sugars kkddddddddkekekk, PS) , state whether its target mRNA inhibition is at least 40%.
Completion: false (0)

Prompt: Given CCATTTATGTGACTAG (sugars kkdddddddddkekek, PS) , state whether its target mRNA inhibition is at least 40%.
Completion: false (0)

Prompt: Given ACTTGAAAAGTGTTTA (sugars k3 d10 k3, PS) , state whether its target mRNA inhibition is at least 40%.
Completion: false (0)

Prompt: Given AACCAGTGTTAAGAGA (sugars k3 d10 k3, PS) , state whether its target mRNA inhibition is at least 40%.
Completion: false (0)

Prompt: Given ATGGTGTAACATAGGT (sugars kkkddddddddkekek, PS) , state whether its target mRNA inhibition is at least 40%.
Completion: true (1)

Prompt: Given ACCAGTGTTAAGAGAA (sugars kkkddddddddkekek, PS) , state whether its target mRNA inhibition is at least 40%.
Completion: true (1)

Prompt: Given CAGTGTGACTCAGTTA (sugars kkkddddddddkekek, PS) , state whether its target mRNA inhibition is at least 40%.
Completion: true (1)

Prompt: Given TGCTGTGAAACTCTCT (sugars k3 d9 k3 e1, PS) , state whether its target mRNA inhibition is at least 40%.
Completion: false (0)
